# Tested on: OVCAR-5 ovarian
# ASSAY_REMARKS: NCI tumour cell line growth inhibition, 48 h
For each of the molecules below, state its TGI.

What does the data say about its TGI? Entry: Cc1cc(/C=C/c2cc[n+](C)c3ccccc23)c(O)c2ncccc12
16 µM

I would be grateful if you could share the reported TGI for C=C(CCC/C(C)=C/C=C/[C@@H](C)CCCc1ccoc1)C[C@@H]1OC(=O)[C@H](C)[C@@H]1O .
> 50 µM

Fill in: TGI of Cc1cc(N2CCOCC2)nc(N[C@@H]2CCC[C@H](Nc3ccnc4cc(Cl)ccc34)C2)n1 is ___
11.2 µM

Name the reported TGI value associated with the molecule O=C(c1ccccc1)c1ccc2[nH]c(-c3c(Cl)c(Cl)c(Cl)c(Cl)c3C(=O)N/N=C/c3cccc(Oc4ccccc4)c3)nc2c1
> 100 µM

Look up TGI: N#Cc1c(N2CCC(O)C2)c2ccccc2n2c1nc1ccccc12 (stereo not given)
> 100 µM

Consider the molecule shown here: NCCCC[C@H](N)C(=O)Nc1ccc(-c2nc3ccccc3s2)cc1 What is its recorded TGI?
33.2 µM

Which TGI value is on record for NCCCCCCCn1c2c(c3ccccc3c1=O)C(=O)c1ccccc1-2 ?
3.97 µM

Record request: TGI value, item CC1(C)OC(=O)N(c2ccccc2)C12C=Cc1cccc([N+](=O)[O-])c1O2 (stereo not given)
> 100 µM

Entry under review: Cc1csc(/C=C/C(=O)c2nnn(-c3ccnc4c(C(F)(F)F)cccc34)c2C)c1 . Reported TGI?
> 100 µM

Request the reported TGI associated with CCOC(=O)C1=NN(c2ccc([N+](=O)[O-])cc2)[C@@]2(C)C[C@]3(c4ccccc4)N(c4ccc([N+](=O)[O-])cc4)N=C(C(=O)OCC)N3c3ccccc3N12
> 100 µM

TGI for CC12CCC3(OCCO3)C(OC(=O)c3ccccc3)=C1CCC21OCCO1 (stereo not given) ?
> 100 µM

# TGI lookup, item O=C(COc1cc(O)c2c(=O)cc(-c3ccccc3)oc2c1)Nc1ccccc1C(F)(F)F
> 100 µM

# get_value(readout='TGI', item= CN1C(=O)C2(C=CC(O)CC2)c2ccccc21 (stereo not given) )
> 100 µM

Which TGI is reported for this molecule? CC1=C(O)C(=O)C2C(=O)C1C1Cc3ccccc3C21 (stereo not given)
> 100 µM

Could you tell me which TGI is on file for Nc1nc2ncc(CNc3ccc(C(=O)NC(CCC(=O)O)C(=O)O)cc3)nc2c(=O)[nH]1 (stereo not given) ?
> 100 µM

What does the data say about its TGI? Entry: CC(=O)O[C@H]1CC[C@@]2(C)C(=CC[C@@H]3[C@@H]2CC[C@]2(C)c4c(C)nn(-c5ccccc5)c4C[C@@H]32)C1
68.1 µM

Please look up its TGI: CN(C)CCn1c(=O)c2ccc(NCCN3CCNCC3)c3c(=O)c4ccccc4n(c1=O)c23
42.1 µM

What value of measured TGI is listed for O=c1ncc(F)cn1C1OC(CO)C(O)C1O (stereo not given) ?
> 100 µM

Any idea what its TGI is? The molecule is C=CCN(C(=O)OC(C)(C)C)[C@H](C)C(=O)N[C@@H](C)C(=O)OC
> 100 µM

Entry O=c1c2cc3c(=O)n4c(cc(-c5ccccc5)c5cc(Cl)ccc54)nc3cc2nc2cc(-c3ccccc3)c3cc(Cl)ccc3n12 has what TGI?
> 100 µM

GET /values?readout=TGI&item= COC(=O)C1(C#N)C(C)(C)N=C(c2ccccc2)C12CCCCC2 (stereo not given)
> 100 µM

What does the data say about its TGI? Entry: O=C(Nc1ccc2[nH]c(C(=O)N3CC(CCl)c4c3cc([N+](=O)[O-])c3ccccc43)cc2c1)Nc1ccc2[nH]c(C(=O)N3CC(CCl)c4c3cc([N+](=O)[O-])c3ccccc43)cc2c1 (stereo not given)
> 100 µM

Reported TGI for COc1ccc(C2SCC(=O)N2NC(=O)c2ccc(NC(C)=O)cc2)c(OC)c1 (stereo not given) : what is it?
> 100 µM

Query: TGI; subject: CC(=O)C1=C(O)C=C2Oc3c(C(=O)/C=C/c4c(Cl)cccc4Cl)c(O)c(C)c(O)c3[C@]2(C)C1=O
8.13 µM

Recorded TGI for O=C(CN1CCOCC1)c1ccc2c(c1)oc(=O)n2CCN1CCOCC1 , please?
> 100 µM

Fill in: TGI of O=C(O)CCSCc1ccccc1 is ___
> 100 µM

For the molecule shown here, O=C1c2ccccc2-c2nnc3c(c21)-c1ccccc1C3 , give the reported TGI.
> 100 µM

Requested read-out: TGI. Entry: O=C1C(=O)N(c2cccc(C(F)(F)F)c2)C(=S)N1c1ccccc1
80.5 µM

So what does the record say about TGI for C#Cc1c(/C=C/C(=O)OCC)ccc2ccccc12 ?
> 100 µM

May I ask what TGI has been recorded for Cc1ccc(O)c(C2=CC(c3cccc(Cl)c3)SC(N)=N2)c1 (stereo not given) ?
73.5 µM

Given the entry COc1ccc2ccccc2c1C1NC(=O)c2ccccc2N1 (stereo not given) , report its measured TGI.
> 31.3 µM

# input molecule: O=C1C=CC(=Nc2cc(Br)c(O)c(Br)c2)C=C1 ; wanted: its TGI
60.5 µM

Could you tell me which TGI is on file for N#CC(=N)c1ncn(-c2ccc(N)cc2)c1N ?
> 100 µM

Please give the measured TGI for this molecule: Nc1nnnn1CCO
> 100 µM

I have this molecule here, C=CC(=O)Nc1cc(C)ccc1Nc1nc(Nc2cc(OC)ncc2C)ncc1C(F)(F)F , and I need its recorded TGI.
2.14 µM

Name the recorded TGI for Cc1ccc(NC(=O)CC2Sc3ccccc3NC2=O)c(C)c1 (stereo not given) .
73 µM

Report TGI for COC(=O)c1cc(O)c2cc3c(cc2c1-c1cc(OC)c(OC)c(OC)c1)OCO3 please.
> 100 µM

Given the entry O=C1C2=C(CC3=C(C2)CS(=O)(=O)C3)C(=O)C2=C1CC1=C(C2)CS(=O)(=O)C1 , report its measured TGI.
> 78.3 µM

Please give the measured TGI for this molecule: CC1SCc2nc3ccccc3n21 (stereo not given)
> 100 µM

Reported TGI, molecule N=c1ccn(O)cc1/C=C1/C(=O)Nc2ccccc21 : ____
> 100 µM

Source of measurements: PubChem BioAssay (NCI)
